testDescription: Pharmacokinetics after i.v. and oral application, beagle dog
studyConditions: Beagle, blood, iv, 2 umol/kg
quantityKind: clearance (mL/min/kg)

[[record]]
givensmiles = "Cc1cc(C#N)cnc1C(=O)Nc1ccc(F)c([C@]2(C)CO[C@@](C)(C(F)(F)F)C(N)=N2)c1"
recordedvalue = 0.4


====

testDescription: Pharmacokinetics after i.v. and oral application, beagle dog
studyConditions: Beagle, blood, po, 2 umol/kg
quantityKind: bioavailability (%)

[[record]]
givensmiles = "Cc1cc(C#N)cnc1C(=O)Nc1ccc(F)c([C@]2(C)CO[C@@](C)(C(F)(F)F)C(N)=N2)c1"
recordedvalue = 62


====

testDescription: Blood pharmacokinetics and brain penetration in the rat, 30 μmol/kg oral
Type: in vivo
studyConditions: male, Sprague Dawley, 30 umol/kg, brain, read-out: AUC 0-24 h brain
Text: In vivo blood pharmacokinetics and brain penetration was investigated in the rat.
quantityKind: AUC(0-t) (µM·h)

[[record]]
givensmiles = "Cc1cc(C#N)cnc1C(=O)Nc1ccc(F)c([C@]2(C)CO[C@@](C)(C(F)(F)F)C(N)=N2)c1"
recordedvalue = 23.6

